MEASURED TARGET: Prostaglandin E2 receptor EP4 subtype (Rattus norvegicus)
Sequence (P43114 whole entry): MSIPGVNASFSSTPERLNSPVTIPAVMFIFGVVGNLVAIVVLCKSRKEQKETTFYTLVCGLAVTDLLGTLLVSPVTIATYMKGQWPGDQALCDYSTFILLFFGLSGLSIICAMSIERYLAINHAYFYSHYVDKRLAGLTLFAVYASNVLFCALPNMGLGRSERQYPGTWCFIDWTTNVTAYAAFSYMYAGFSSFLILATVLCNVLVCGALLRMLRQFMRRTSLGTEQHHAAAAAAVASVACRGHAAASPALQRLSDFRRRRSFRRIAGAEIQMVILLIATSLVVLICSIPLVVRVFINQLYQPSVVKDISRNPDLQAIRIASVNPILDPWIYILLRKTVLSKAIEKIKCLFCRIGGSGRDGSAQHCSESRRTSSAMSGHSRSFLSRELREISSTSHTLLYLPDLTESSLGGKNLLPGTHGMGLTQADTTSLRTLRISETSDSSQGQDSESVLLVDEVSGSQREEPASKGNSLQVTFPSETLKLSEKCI
ASSAY NAME: Agonist activity at rat EP4 receptor expressed in CHO cells assessed as cAMP production after 10 mins by radioimmunoassay
pEC50: −log10 of the molar value.
ATTRIBUTE MEASURED: pEC50

{"columns": ["SMILES STRING", "ENDPOINT RESULT"],
 "data": [
  ["Cc1cccc(C[C@H](O)/C=C/[C@H]2CCC(=O)N2CCSCCCC(=O)O)c1", 8.24],
  ["Cc1ccc2oc(-c3cccc(C[C@H](O)/C=C/[C@H]4CCC(=O)N4CCSc4nc(C(=O)O)cs4)c3)nc2c1", 8.06],
  ["O=C(O)CCCSCCN1C(=O)CC[C@@H]1/C=C/[C@@H](O)Cc1cccc(-c2nc3ccccc3o2)c1", 7.89]
]}

I. O=C(O)CCCSCCN1C(=O)CC[C@@H]1/C=C/[C@@H](O)Cc1cccc(OCc2ccccn2)c1
II. O=C(O)CCCSCCN1C(=O)CC[C@@H]1/C=C/[C@@H](O)Cc1cccc(-c2ccccc2)c1
For I and II , which recorded pEC50 is lower? Could you answer with the label of the item you picked?
II
